Each recorded value in this set is attributed to ChEMBL document CHEMBL3046208.

Consider the following compounds and their measured inhibition at 100 µM readings.
System: Lepidium sativum
test_summary: Inhibition of root length of Lepidium sativum at 0.1 mM after 5 days relative to untreated control
Format: functional
test_context: 120 h
The answer is to be given in %; state only the numeric part.

Q: Look up inhibition at 100 µM for this compound: COC(=O)[C@@]1(C)CCC[C@]2(C)c3cc(=O)occ3CC[C@@H]12
Result: 20

Q: # input compound: COC(=O)[C@@]1(C)CCC[C@]2(C)C3=CC(=O)OCC3=CC[C@@H]12 ; wanted: its inhibition at 100 µM
Result: 20

Q: Quick one: inhibition at 100 µM of COC(=O)[C@@]1(C)CCC[C@]2(C)C3=CC(=O)O[C@H](C(C)C)C3=CC[C@@H]12 ?
Result: 20

----------
System: Lactuca sativa
test_summary: Stimulation of shoot length of Lactuca sativa cv. Roman (lettuce) at 0.1 mM after 5 days relative to untreated control
Assay type: functional
Listed next: entries and their corresponding Activity.

{"columns": ["compound_structure", "test_target", "Activity"],
 "data": [
  ["CO[C@H]1OC(=O)C=C2C1=C[C@H]1OC(=O)[C@@]3(C)CCC[C@@]2(C)[C@@H]13", "Lactuca sativa", ">40%"],
  ["C[C@@]12CCC[C@]3(C)C4=CC(=O)OCC4=C[C@@H](OC1=O)[C@@H]23", "Lactuca sativa", ">40%"]
]}

Next up:
Q: For the compound COC(=O)[C@@]1(C)CCC[C@]2(C)C3=C(CC[C@@H]12)COC(=O)C3 , what Activity is on record?
Result: <20%

----------
System: Solanum lycopersicum
test_summary: Stimulation of germination of Solanum lycopersicum (tomato) at 0.1 mM after 5 days relative to untreated control
Type: functional
Recorded Activity for the following compounds

{"columns": ["compound", "reported_property", "meas_value"],
 "data": [
  ["COC(=O)[C@@]1(C)CCC[C@@]2(C)[C@H]1CC=C1COC(=O)C[C@@H]12", "Activity", "<20%"]
]}

Attention now turns to another entry.
Q: # get_value(readout='Activity', item= COc1nc(C)nc(NC(=O)NS(=O)(=O)c2ccccc2OCCCl)n1 [LOGRAN] )
Result: 20%

----------
System: Lepidium sativum
test_summary: Inhibition of root length of Lepidium sativum at 0.1 mM after 5 days relative to untreated control
Format: functional
test_context: 120 h
Item-by-item account of inhibition at 100 µM

{"columns": ["compound_structure", "reported_property", "meas_value"],
 "data": [
  ["CO[C@H]1OC(=O)C=C2C1=C[C@H]1OC(=O)[C@@]3(C)CCC[C@@]2(C)[C@@H]13", "inhibition at 100 µM", "> 40%"],
  ["C[C@]1(C(=O)O)CCC[C@]2(C)C3=CC(=O)OC[C@]34O[C@@H]4C[C@@H]12", "inhibition at 100 µM", "< 20%"]
]}

Q: Please give the measured inhibition at 100 µM for this compound: COC(=O)[C@@]1(C)CCC[C@]2(C)C3=C(CC[C@@H]12)COC(=O)C3
Result: < 20%
